Each entry below lists one item and its recorded IC50 value.
Molecular target: various mutants of kinase EGFR (BaF3 cell lines stably transfected with kinase) (Homo sapiens, UniProt P00533, L858R/T790M)
Construct: expressed in transfected cells; host or cells: BaF3
Sequence (P00533 25-1210 T790M/L858R): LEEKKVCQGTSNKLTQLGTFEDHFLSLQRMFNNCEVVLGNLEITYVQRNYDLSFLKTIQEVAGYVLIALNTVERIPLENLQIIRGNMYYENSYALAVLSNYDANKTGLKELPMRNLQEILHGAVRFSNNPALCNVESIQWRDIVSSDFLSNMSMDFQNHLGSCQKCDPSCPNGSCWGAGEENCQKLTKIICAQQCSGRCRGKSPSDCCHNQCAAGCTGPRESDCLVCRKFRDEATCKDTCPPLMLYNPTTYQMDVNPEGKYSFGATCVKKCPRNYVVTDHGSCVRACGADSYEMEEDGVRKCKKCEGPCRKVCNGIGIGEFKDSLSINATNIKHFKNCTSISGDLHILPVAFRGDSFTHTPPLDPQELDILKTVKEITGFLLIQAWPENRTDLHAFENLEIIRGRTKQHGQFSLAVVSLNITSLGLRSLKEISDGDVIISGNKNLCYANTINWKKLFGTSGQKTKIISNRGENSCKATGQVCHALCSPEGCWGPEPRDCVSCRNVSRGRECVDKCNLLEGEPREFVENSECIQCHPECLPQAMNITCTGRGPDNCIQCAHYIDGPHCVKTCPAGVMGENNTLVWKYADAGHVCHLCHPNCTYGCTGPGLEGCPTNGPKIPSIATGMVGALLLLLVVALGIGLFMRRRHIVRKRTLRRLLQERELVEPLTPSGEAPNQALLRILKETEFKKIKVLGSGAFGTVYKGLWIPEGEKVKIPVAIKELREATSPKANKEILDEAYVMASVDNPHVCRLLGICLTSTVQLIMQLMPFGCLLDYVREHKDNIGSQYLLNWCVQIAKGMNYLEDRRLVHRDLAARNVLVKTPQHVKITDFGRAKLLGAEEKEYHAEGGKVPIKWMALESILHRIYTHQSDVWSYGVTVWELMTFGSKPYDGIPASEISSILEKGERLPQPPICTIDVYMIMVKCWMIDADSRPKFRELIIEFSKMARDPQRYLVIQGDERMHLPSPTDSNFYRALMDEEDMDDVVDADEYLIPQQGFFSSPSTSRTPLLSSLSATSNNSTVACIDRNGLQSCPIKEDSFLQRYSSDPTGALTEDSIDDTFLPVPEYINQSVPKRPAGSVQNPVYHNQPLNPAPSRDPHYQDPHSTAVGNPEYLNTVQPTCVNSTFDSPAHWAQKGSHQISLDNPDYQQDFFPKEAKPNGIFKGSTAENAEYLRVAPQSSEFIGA
Assay: Growth inhibitory activity of compounds on BaF3 cell lines stably transfected with kinase (MTS, 48 h)
Format: cell-based
Conditions: BaF3 cells stably transfected with EGFR L858R/T790M, read-out: IC50, growth inhibition, L858R/T790M

# annotated cases, reported IC50 shown
> print(dat)
                             structurestring  measuredparameter          result
 1  C=Cc1cc(Nc2ncc(Br)c(Nc3ccc4nccnc4c3N(C)S(=O)(=O)C3CC3)n2)c(OC(F)(F)F)cc1N1CCC(N2CCN(C)CC2)CC1               IC50    50 to 500 nM
 2  CCN(c1c(Nc2nc(Nc3ccc(N4CCC(N5CCN(C)CC5)CC4)nc3OC)ncc2Br)ccc2nccnc12)S(C)(=O)=O               IC50    50 to 500 nM
 3  CCc1cc(Nc2ncc(Cl)c(Nc3ccc4nccnc4c3N(CC)S(C)(=O)=O)n2)c(OC)cc1N1CCN(C)CC1               IC50         ≤ 50 nM
 4  C=Cc1cc(Nc2ncc(F)c(Nc3ccc4nccnc4c3N(C)S(C)(=O)=O)n2)c(OC(F)(F)F)cc1N1CCC(N2CCN(C)CC2)CC1               IC50         ≤ 50 nM
 5  CCc1cc(Nc2ncc(Cl)c(Nc3ccc4nccnc4c3N(C)S(=O)(=O)C(F)(F)F)n2)c(OC)cc1N1CCC(N(C)C)CC1               IC50    50 to 500 nM
 6  COc1cc(N2CCC(N3CCN(C)CC3)CC2)c(Cc2ccccc2)cc1Nc1ncc(C(F)(F)F)c(Nc2ccc3nccnc3c2N(C)S(C)(=O)=O)n1               IC50  500 to 2500 nM
 7  COc1cc(N2CCC(N3CCN(C)CC3)CC2)ccc1Nc1ncc(C(F)(F)F)c(Nc2ccc3nccnc3c2N(C)S(C)(=O)=O)n1               IC50         ≤ 50 nM
 8  COc1ccc(N2CCC(O)CC2)cc1Nc1ncc(Br)c(Nc2ccc3nccnc3c2N(C)S(C)(=O)=O)n1               IC50         ≤ 50 nM
 9  CCN(c1c(Nc2nc(Nc3cc(C)c(N4CCN(C)CC4)cc3OC)ncc2Cl)ccc2nccnc12)S(C)(=O)=O               IC50         ≤ 50 nM
10  CCc1cc(Nc2ncc(Cl)c(Nc3ccc4nccnc4c3N(C)S(=O)(=O)CC)n2)c(OC)cc1N1CCC(N(C)C)CC1               IC50         ≤ 50 nM

[Q] Fill in: IC50 of `COc1cc(N2CCC(N3CCN(C)CC3)CC2)ccc1Nc1ncc(C#N)c(Nc2ccc3nccnc3c2N(C)S(C)(=O)=O)n1` is ___
[A] 500 to 2500 nM

[Q] Endpoint output: IC50 of `COc1cc(N2CCC(N3CCN(C)CC3)CC2)c(C)cc1Nc1ncc(Cl)c(Nc2ccc3nccnc3c2N(C)S(=O)(=O)C(F)(F)F)n1` . Value?
[A] 500 to 2500 nM

[Q] Report IC50 for `CCc1cc(Nc2ncc(Cl)c(Nc3ccc4nccnc4c3N(C)S(=O)(=O)CC)n2)c(OC)cc1N1CCC(N2CCN(C)CC2)CC1` please.
[A] ≤ 50 nM

[Q] Can you look up the measured IC50 of `CCS(=O)(=O)N(C)c1c(Nc2nc(Nc3cc(C)c(N4CCC(N5CCN(C)CC5)CC4)cc3OC)ncc2Br)ccc2nccnc12` for me?
[A] ≤ 50 nM

[Q] // returns reported IC50 for input `CCc1cc(Nc2ncc(Cl)c(Nc3ccc4nccnc4c3N(C)S(C)(=O)=O)n2)c(OC)cc1N1CCC(N(C)C)CC1`
[A] ≤ 50 nM

[Q] Name the recorded IC50 for `COc1cc(N2CCC(N(C)C)CC2)c(C)cc1Nc1ncc(C2CC2)c(Nc2ccc3nccnc3c2N(C)S(C)(=O)=O)n1` .
[A] ≤ 50 nM

[Q] Recorded IC50 for `CCc1cc(Nc2ncc(Br)c(Nc3ccc4nccnc4c3N(C)S(=O)(=O)CC)n2)c(OC)cc1N1CCC(N2CCN(C)CC2)CC1` , please?
[A] ≤ 50 nM

[Q] Return reported IC50; argument: `COc1cc(N2CCN(C)CC2)c(C)cc1Nc1ncc([N+](=O)[O-])c(Nc2ccc3nccnc3c2N(C)S(C)(=O)=O)n1`
[A] 50 to 500 nM

[Q] IC50 lookup needed for `COc1cc(N2CCC(N3CCN(C)CC3)CC2)c(C2CC2)cc1Nc1ncc(C2CC2)c(Nc2ccc3nccnc3c2N(C)S(C)(=O)=O)n1` , thanks.
[A] ≤ 50 nM
